Catalogue of relative viability readings, one per entry.
Test system: NCI-H1395
Assay: relative viability (nuclei count vs DMSO), 5 days (fraction); higher = more cells survive
Details: first compound 2 µM

Enquiry: Output relative viability of COCC1(CO)C(=O)C2CCN1CC2 (centres undefined) [PRIMA-1MET] + Cc1cc(Nc2cc(N3CCN(C)CC3)nc(Sc3ccc(NC(=O)C4CC4)cc3)n2)n[nH]1 [Tozasertib] (partner 0.1 µM)
Return: 0.768

Enquiry: Output relative viability of COCC1(CO)C(=O)C2CCN1CC2 (centres undefined) [PRIMA-1MET] + CC1(C)CCC(c2ccc(Cl)cc2)=C(CN2CCN(c3ccc(C(=O)NS(=O)(=O)c4ccc(N[C@H](CCN5CCOCC5)CSc5ccccc5)c(S(=O)(=O)C(F)(F)F)c4)cc3)CC2)C1 [Navitoclax] (partner 0.5 µM)
Return: 1.02

Enquiry: Output relative viability of COCC1(CO)C(=O)C2CCN1CC2 (centres undefined) [PRIMA-1MET] + COc1cc2c(Oc3ccc(NC(=O)C4(C(=O)Nc5ccc(F)cc5)CC4)cc3F)ccnc2cc1OCCCN1CCOCC1 [Foretinib] (partner 0.25 µM)
Return: 1.05

Enquiry: Output relative viability of COCC1(CO)C(=O)C2CCN1CC2 (centres undefined) [PRIMA-1MET] + CC(=O)c1c(C)c2cnc(Nc3ccc(N4CCNCC4)cn3)nc2n(C2CCCC2)c1=O [Palbociclib] (partner 0.5 µM)
Return: 0.641

----------
Catalogue of relative viability readings, one per entry.
System: H3255
Experiment: relative viability (nuclei count vs DMSO), 5 days (fraction); higher = more cells survive
Settings: first compound 2 µM
// response body must contain only the number

Here are 2 compounds together with their reported answers.
Compound	Experimental readout	Value measured
COCC1(CO)C(=O)C2CCN1CC2 (stereo not drawn) [PRIMA-1MET] + COc1cccc2cc(-c3nc([C@H]4CC[C@H](C(=O)O)CC4)n4ncnc(N)c34)[nH]c12 [OSI-027] (partner 0.5 µM)	relative viability	0.562
COCC1(CO)C(=O)C2CCN1CC2 (stereo not drawn) [PRIMA-1MET] + O=C(CCCCCCC(=O)Nc1ccccc1)NO [Vorinostat] (partner 1 µM)	relative viability	0.809

Enquiry: Output relative viability of COCC1(CO)C(=O)C2CCN1CC2 (stereo not drawn) [PRIMA-1MET] + N=C(N)NC(=N)NCCc1ccccc1 [Phenformin] (partner 250 µM)
Return: 0.36

----------
Tested on: NCI-H1355
Experiment: relative viability (nuclei count vs DMSO), 5 days (fraction); higher = more cells survive
Settings: first compound 0.253 µM
Catalogue of relative viability readings, one per entry.
// response body must contain only the number

Enquiry: Output relative viability of O=c1cc(-c2cccc3c2Sc2ccccc2S3)oc(N2CCOCC2)c1 + CC1(C)CCC(c2ccc(Cl)cc2)=C(CN2CCN(c3ccc(C(=O)NS(=O)(=O)c4ccc(N[C@H](CCN5CCOCC5)CSc5ccccc5)c(S(=O)(=O)C(F)(F)F)c4)cc3)CC2)C1 [Navitoclax] (partner 0.5 µM)
Return: 1.06

----------
Test system: NCI-H2342
Test: relative viability (nuclei count vs DMSO), 5 days (fraction); higher = more cells survive
Conditions: first compound 1 µM
Catalogue of relative viability readings, one per entry.
// response body must contain only the number

Compound	Value measured
CCN(CC)CCCCNc1ncc2cc(-c3cc(OC)cc(OC)c3)c(NC(=O)NC(C)(C)C)nc2n1 + N=C(N)NC(=N)NCCc1ccccc1 [Phenformin] (partner 250 µM)	0.648
CCN(CC)CCCCNc1ncc2cc(-c3cc(OC)cc(OC)c3)c(NC(=O)NC(C)(C)C)nc2n1 + Nc1nc2[nH]cc(CCc3ccc(C(=O)N[C@@H](CCC(=O)O)C(=O)O)cc3)c2c(=O)[nH]1 [Pemetrexed] (partner 0.2 µM)	0.755
CCN(CC)CCCCNc1ncc2cc(-c3cc(OC)cc(OC)c3)c(NC(=O)NC(C)(C)C)nc2n1 + Nc1ncn([C@H]2C[C@H](O)[C@@H](CO)O2)c(=O)n1 [Decitabine] (partner 2 µM)	0.807

Could you now consider this next compound?
Enquiry: Output relative viability of CCN(CC)CCCCNc1ncc2cc(-c3cc(OC)cc(OC)c3)c(NC(=O)NC(C)(C)C)nc2n1 + CC(=O)Nc1cccc(-n2c(=O)n(C3CC3)c(=O)c3c(Nc4ccc(I)cc4F)n(C)c(=O)c(C)c32)c1 [Trametinib] (partner 0.02 µM)
Return: 0.928

----------
Catalogue of relative viability readings, one per entry.
Tested on: RERF-LC-KJ
Experiment: relative viability (nuclei count vs DMSO), 5 days (fraction); higher = more cells survive
Conditions: first compound 0.6325 µM
// response body must contain only the number

Here are 3 molecules together with their reported answers.
Molecule	Subject of test	relative viability
COCC1(CO)C(=O)C2CCN1CC2 (centres undefined) [PRIMA-1MET] + Cc1cc(Nc2cc(N3CCN(C)CC3)nc(Sc3ccc(NC(=O)C4CC4)cc3)n2)n[nH]1 [Tozasertib] (partner 0.1 µM)	RERF-LC-KJ	0.523
COCC1(CO)C(=O)C2CCN1CC2 (centres undefined) [PRIMA-1MET] + C[C@]1(O)C[C@@H](c2nc(-c3ccc4ccc(-c5ccccc5)nc4c3)c3c(N)nccn32)C1 [Linsitinib] (partner 1 µM)	RERF-LC-KJ	0.955
COCC1(CO)C(=O)C2CCN1CC2 (centres undefined) [PRIMA-1MET] + Cc1nc(NC(=O)N2CCC[C@H]2C(N)=O)sc1-c1ccnc(C(C)(C)C(F)(F)F)c1 [Alpelisib] (partner 2 µM)	RERF-LC-KJ	0.835

Enquiry: # assay system RERF-LC-KJ: give relative viability of COCC1(CO)C(=O)C2CCN1CC2 (centres undefined) [PRIMA-1MET] + O=C(c1cc(Cc2n[nH]c(=O)c3ccccc23)ccc1F)N1CCN(C(=O)C2CC2)CC1 [Olaparib] (partner 8 µM)
Return: 0.988

----------
Test system: NCI-H1915
Assay: relative viability (nuclei count vs DMSO), 5 days (fraction); higher = more cells survive
Settings: first compound 0.253 µM
Experimental readout: relative viability
// response body must contain only the number

Compound	Experimental readout	Value measured
O=c1cc(-c2cccc3c2Sc2ccccc2S3)oc(N2CCOCC2)c1 + CC(C)C[C@H](NC(=O)[C@H](Cc1ccccc1)NC(=O)c1cnccn1)B(O)O [Bortezomib] (partner 0.002 µM)	relative viability	1.03
O=c1cc(-c2cccc3c2Sc2ccccc2S3)oc(N2CCOCC2)c1 + N=C(N)NC(=N)NCCc1ccccc1 [Phenformin] (partner 250 µM)	relative viability	0.4

Enquiry: Output relative viability of COc1nc(C)cnc1NS(=O)(=O)c1cccnc1-c1ccc(-c2nnco2)cc1 [Zibotentan] + CS(=O)(=O)N1CCN(Cc2cc3nc(-c4cccc5[nH]ncc45)nc(N4CCOCC4)c3s2)CC1 [Pictilisib] (partner 1 µM)
Return: 0.955

Enquiry: Output relative viability of COc1nc(C)cnc1NS(=O)(=O)c1cccnc1-c1ccc(-c2nnco2)cc1 [Zibotentan] + NC(=O)Nc1cc(-c2cccc(F)c2)sc1C(=O)N[C@H]1CCCNC1 [AZD7762] (partner 0.2 µM)
Return: 0.649

Enquiry: Output relative viability of O=c1cc(-c2cccc3c2Sc2ccccc2S3)oc(N2CCOCC2)c1 + CS(=O)(=O)N1CCN(Cc2cc3nc(-c4cccc5[nH]ncc45)nc(N4CCOCC4)c3s2)CC1 [Pictilisib] (partner 1 µM)
Return: 1.01

----------
System: LK-2
Assay: relative viability (nuclei count vs DMSO), 5 days (fraction); higher = more cells survive
Conditions: first compound 0.03162 µM
Catalogue of relative viability readings, one per entry.
// response body must contain only the number

Here are 4 compounds together with their reported answers.
Compound	relative viability
O=c1cc(N2CCOCC2)oc2c(-c3cccc4c3sc3ccccc34)cccc12 + CCNC(=O)c1noc(-c2cc(C(C)C)c(O)cc2O)c1-c1ccc(CN2CCOCC2)cc1 [Luminespib] (partner 0.01 µM)	0.217
O=c1cc(N2CCOCC2)oc2c(-c3cccc4c3sc3ccccc34)cccc12 + O=C(c1cc(Cc2n[nH]c(=O)c3ccccc23)ccc1F)N1CCN(C(=O)C2CC2)CC1 [Olaparib] (partner 8 µM)	0.554
CCN(CC)CCCCNc1ncc2cc(-c3cc(OC)cc(OC)c3)c(NC(=O)NC(C)(C)C)nc2n1 + Cc1nc(Nc2ncc(C(=O)Nc3c(C)cccc3Cl)s2)cc(N2CCN(CCO)CC2)n1 [Dasatinib] (partner 0.075 µM)	0.267
CCN(CC)CCCCNc1ncc2cc(-c3cc(OC)cc(OC)c3)c(NC(=O)NC(C)(C)C)nc2n1 + CC(=O)c1c(C)c2cnc(Nc3ccc(N4CCNCC4)cn3)nc2n(C2CCCC2)c1=O [Palbociclib] (partner 0.5 µM)	0.66

Could you now consider this next compound?
Enquiry: Output relative viability of O=c1cc(N2CCOCC2)oc2c(-c3cccc4c3sc3ccccc34)cccc12 + N=C(N)NC(=N)NCCc1ccccc1 [Phenformin] (partner 250 µM)
Return: 0.404
